System: NCI-H23 lung
ASSAY_COMMENT: NCI tumour cell line growth inhibition, 48 h
MEASURED_ATTRIBUTE: TGI

Known TGI results, listed for orientation:
[[record]]
compound = "Cc1cc(C)cc(Nc2ccc([N+](=O)[O-])c(NCCN3CCOCC3)n2)c1"
measured_attribute = "TGI"
result = "> 100 µM"

[[record]]
compound = "Nc1nc(NCC2(CO)CCC2)cc(=O)[nH]1"
measured_attribute = "TGI"
result = "> 100 µM"

[[record]]
compound = "O=S(=O)(O)c1cc(N=[N+]([O-])c2cc(S(=O)(=O)O)c3ccccc3c2)cc2ccccc12"
measured_attribute = "TGI"
result = "77 µM"

[[record]]
compound = "CC(C)(C)OC(=O)CN1CCc2c(sc3ncnc(N/N=C/c4cccc5ccccc45)c23)C1"
measured_attribute = "TGI"
result = "17.4 µM"

[[record]]
compound = "CNC(=O)OC1C(O[C@H]2C[C@H]3[C@@H]4CC=C5C[C@@H](O)CC[C@]5(C)[C@H]4CC[C@]3(C)[C@H]2[C@H](C)C(=O)CCC(C)C)OCC(O)C1OC1OCC(O)C(O)C1OC(=O)c1ccc(OC)cc1 (stereo not given in full)"
measured_attribute = "TGI"
result = "4.59 µM"

[[record]]
compound = "Nc1ccc(Oc2ccc(C34CC5CC(C3)CC(c3ccc(Oc6ccc(N)cc6)cc3)(C5)C4)cc2)cc1"
measured_attribute = "TGI"
result = "37.4 µM"

[[record]]
compound = "O=C(Cn1c2ccc(Br)cc2c2nc3ccccc3nc21)N/N=C/c1ccccc1"
measured_attribute = "TGI"
result = "> 100 µM"

[[record]]
compound = "C/C(CC(=O)NC1=CC=C(NC(=O)C/C(C)=N\\Nc2ccccc2)CC1)=N/Nc1ccccc1"
measured_attribute = "TGI"
result = "> 100 µM"

[[record]]
compound = "C1=C(c2ccccc2)C(c2ccc(OCCN3CCCCC3)cc2)Oc2ccccc21 (stereo not given)"
measured_attribute = "TGI"
result = "6.3 µM"


--- query ---
**Q:** Tell me its TGI given CC(O)C(O)C(O)C(/C=N\Nc1ccccc1)=N/Nc1ccccc1 (stereo not given) as the entry.
**A:** 24.1 µM

* * *

System: SK-MEL-2 melanoma
ASSAY_COMMENT: NCI tumour cell line growth inhibition, 48 h
Each item that follows carries a reported TGI.

Use the examples below as a reference point.
[[record]]
compound = "NC(Cc1ccnnc1)C(=O)O (stereo unspecified)"
measured_attribute = "TGI"
result = "> 100 µM"

[[record]]
compound = "CCCCCCCCCCCCCCCC(=O)OC(COC(C)=O)CO[P+](=O)O (stereo unspecified)"
measured_attribute = "TGI"
result = "40.6 µM"

[[record]]
compound = "CCc1c(O)c2c(c(O)c1C(C)=O)C(=O)c1c(cc(O)c(C(=O)O)c1C(=O)O)C2=O"
measured_attribute = "TGI"
result = "> 100 µM"

[[record]]
compound = "COc1ccc(/C=C/C(=O)c2cc3c(N)c(C(=O)Nc4ccccc4C)sc3nc2C)cc1"
measured_attribute = "TGI"
result = "> 50 µM"

[[record]]
compound = "Cc1ccc(NC(=O)C2C(=O)N(c3ccc(C)c(C)c3)C(=O)/C2=N\\NC(N)=S)cc1C (stereo unspecified)"
measured_attribute = "TGI"
result = "> 100 µM"

[[record]]
compound = "CCO/C(O)=C(/C(=N)N1CCCC1)C(=O)Nc1ccc(F)cc1"
measured_attribute = "TGI"
result = "> 100 µM"

[[record]]
compound = "Cc1ccc(CC(Cc2ccc(C)cc2C(=O)O)C(=O)O)cc1 (stereo unspecified)"
measured_attribute = "TGI"
result = "> 100 µM"

[[record]]
compound = "Cc1nc2ncn3c(c-2c1Cc1ccccc1)NC=C(O)N3"
measured_attribute = "TGI"
result = "> 100 µM"


**Q:** Give a short answer stating reported TGI for CC1C=C[C@H](Sc2ccccc2)CC[C@@]1(C)O (stereo partly specified) .
**A:** > 100 µM

**Q:** Complete the entry with TGI for `S=C1N=C(Cl)/C(=C\c2ccco2)N1`
**A:** > 100 µM

**Q:** For CC1CCP(=O)(c2ccccc2)CC1 (stereo unspecified) , write its TGI.
**A:** > 100 µM

* * *

Test system: RPMI-8226 leukemia
ASSAY_COMMENT: NCI tumour cell line growth inhibition, 48 h
Readings of TGI for the listed compounds

The examples below pair each entry with its known result.
[[record]]
compound = "CO[C@@]12C[C@H]3[C@@H]([C@@H](O)[C@@H](OC(=O)/C=C/c4ccccc4)[C@@]4(O)C(C)(C)CCC[C@]34C)[C@@H](C)C1=CC(=O)O2"
test_system = "RPMI-8226 leukemia"
result = "20.8 µM"

[[record]]
compound = "O=S(=O)(NCCNc1cc(-c2cn(-c3ccccc3)nc2-c2cccc(O)c2)ccn1)c1ccc(Cl)cc1"
test_system = "RPMI-8226 leukemia"
result = "7.75 µM"

[[record]]
compound = "CC1(C)CC(=O)c2c(nc(SSc3nc4c(c(-c5ccc(Br)cc5)c3C#N)C(=O)CC(C)(C)C4)c(C#N)c2-c2ccc(Br)cc2)C1"
test_system = "RPMI-8226 leukemia"
result = "> 10 µM"


Now for the compound whose TGI we want.
**Q:** Identify measured TGI associated with `C1=C(c2ccccc2)SC=C(c2ccccc2)S1`
**A:** > 100 µM

* * *

Tested on: DU-145 prostate
ASSAY_COMMENT: NCI tumour cell line growth inhibition, 48 h
MEASURED_ATTRIBUTE: TGI

# annotated cases, reported TGI shown
[[record]]
compound = "Cc1ccc(C2C3=C(N=c4s/c(=C/c5ccc(Br)cc5)c(=O)n42)c2ccc4ccccc4c2OCC3)cc1 (centres undefined)"
result = "> 100 µM"

[[record]]
compound = "O=S(=O)(O)/C(=C\\c1ccccc1)c1ccccc1 (tested in a mixture with another compound)"
result = "> 100 µM"

[[record]]
compound = "Nc1cc(N2CCOCC2)nc(=O)n1-c1ccc(Cl)cc1"
result = "> 100 µM"

[[record]]
compound = "CC(=O)c1ccc2c(c1)N(CCCN1CCN(CCO)CC1)c1ccccc1C2"
result = "28 µM"

[[record]]
compound = "CC(C)(C)OC(=O)CN1CCc2c(sc3ncnc(N/N=C/c4cccc5ccccc45)c23)C1"
result = "31.9 µM"

[[record]]
compound = "CCCSc1ccc2[nH]c(N3C(=O)/C(=C/c4cc(OC)c(OC)c(OC)c4)N=C3c3ccccc3)cc2c1"
result = "> 37.5 µM"

[[record]]
compound = "C(=C\\c1nccc2c1[nH]c1ccccc12)/c1ccccc1"
result = "12.3 µM"

[[record]]
compound = "COc1cc(NCC2COc3c(ccc(OC)c3OC)C2=O)c([N+](=O)[O-])cc1OC (centres undefined)"
result = "> 100 µM"


Proceed to the following item.
**Q:** For the compound `Cc1cnoc1NS(=O)(=O)c1ccc(Nc2nnc(/C=C/c3c(O)ccc4ccccc34)c(=O)n2N)cc1` , give its measured TGI value.
**A:** > 100 µM

* * *

Tested on: BT-549 breast
ASSAY_COMMENT: NCI tumour cell line growth inhibition, 48 h
Parameter: GI50. Scope: all listed entries.

[[record]]
line_notation = "CC(=O)/C=C/C1=C(c2cccs2)c2ccccc2CC1"
measured_attribute = "GI50"
result = "32.6 µM"

[[record]]
line_notation = "Cc1ccc2c(c1)O/C(=C\\c1ccc([N+](=O)[O-])o1)C2=O"
measured_attribute = "GI50"
result = "1.82 µM"

[[record]]
line_notation = "[C-]#[N+][C@]12C(=O)[C@H](CCC1(C)C)C(C)(C)[C@H]1C(=O)N(C)c3cccc2c31"
measured_attribute = "GI50"
result = "46.2 µM"

[[record]]
line_notation = "O=C(CNc1ncco1)Nc1ccc(S(=O)(=O)c2ccc(NC(=O)CNc3ncco3)cc2)cc1"
measured_attribute = "GI50"
result = "2.09 µM"


Note: attention shifts to another entry.
**Q:** Give the reported GI50 for this compound. `O=C1c2ccn(CCCCN3CCCCC3)c2C(=O)c2c1c(O)c1ccccc1c2O`
**A:** 17.7 µM

* * *

In this section, each of the molecules is paired with its reported TGI.
Tested on: NCI-H23 lung
ASSAY_COMMENT: NCI tumour cell line growth inhibition, 48 h

[[record]]
molecule = "Cc1cc(=O)oc2c3c(ccc12)OC(c1ccc(Br)cc1)CC3=O (stereo unspecified)"
result = "27.5 µM"

[[record]]
molecule = "NCCP(=O)(O)O"
result = "> 100 µM"

[[record]]
molecule = "COc1ccc([C@]23CCN(S(=O)(=O)c4ccc(C)cc4)[C@H]2[C@H](CO)C2(CC3)OCC(C)(C)CO2)cc1OC"
result = "> 100 µM"

[[record]]
molecule = "CC1(C)N=C(C(=O)c2ccccc2)N(O)C1(O)c1ccccc1 (stereo unspecified)"
result = "> 100 µM"

[[record]]
molecule = "CN(C)CC1(Cc2ccccc2)CCC(Cc2ccccc2)C1=O (stereo unspecified)"
result = "36.1 µM"

[[record]]
molecule = "COc1ccc(NC(=O)CC(=O)N/N=C/c2ccc(N(CCC#N)S(=O)(=O)c3ccccc3)cc2)cc1"
result = "> 100 µM"

[[record]]
molecule = "CC(C(=O)c1ccc(Cl)cc1)C1OC(=O)C(Cl)=C1Cl (stereo unspecified)"
result = "71.1 µM"

[[record]]
molecule = "Cc1cc(=O)oc2c(C)c3oc(CBr)c(Br)c3cc12"
result = "> 100 µM"


**Q:** Find the measured TGI of `CC(=O)Oc1cc(C)c(OC(C)=O)c2c1[C@H]1CC[C@]3(C)[C@@H](OC(C)=O)CC[C@H]3[C@@H]1CC2` and report it.
**A:** 34.8 µM

**Q:** Tell us which TGI value is on record for `CCCC(=O)Oc1ccc2c(C)cc(=O)oc2c1OC(=O)CCC`
**A:** > 100 µM

**Q:** Assign TGI to the following record: `COc1cc2c([C@@H](OC(=O)c3ccccc3)c3ccc4c(c3)OCO4)nccc2c(OC)c1OC`
**A:** > 100 µM

**Q:** # return recorded TGI for input O=C1CC2(CCC(O)(c3cccs3)C(C(=O)c3cccs3)C2)C(=O)c2ccccc2N1 (stereo unspecified)
**A:** > 100 µM

**Q:** Tell us which TGI value is on record for `O=C1/C(=C/c2ccccc2)CCc2ccccc21`
**A:** 45.8 µM

**Q:** Determine from records and report TGI for `CC(=O)c1sc(Nc2ccc(Cl)c(Cl)c2)nc1C`
**A:** > 100 µM
